Below are pKi values recorded for UniProt P28223.
Sequence (P28223 whole entry): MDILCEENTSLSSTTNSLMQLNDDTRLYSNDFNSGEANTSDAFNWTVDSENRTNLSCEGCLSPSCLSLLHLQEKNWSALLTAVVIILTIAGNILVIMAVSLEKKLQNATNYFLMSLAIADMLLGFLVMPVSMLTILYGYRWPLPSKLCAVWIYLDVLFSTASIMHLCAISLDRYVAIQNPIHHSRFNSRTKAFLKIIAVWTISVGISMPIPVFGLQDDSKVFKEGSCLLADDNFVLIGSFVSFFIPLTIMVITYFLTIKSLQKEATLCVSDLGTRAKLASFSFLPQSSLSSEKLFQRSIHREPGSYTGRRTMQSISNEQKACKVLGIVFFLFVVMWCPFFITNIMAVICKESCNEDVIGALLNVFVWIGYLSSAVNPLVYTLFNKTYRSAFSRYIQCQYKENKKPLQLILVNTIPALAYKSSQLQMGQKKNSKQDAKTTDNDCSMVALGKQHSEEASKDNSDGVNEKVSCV
pKi: −log10 of the molar value.
assay-endpoint: pKi

- smiles-representation: "COc1ccccc1N1CCN(CCCN2C(=O)COc3ccccc32)CC1"
  result-number: 6.56
- smiles-representation: "O=C(Cc1ccccc1)NC1CCN(CCCN2C(=O)COc3ccccc32)CC1"
  result-number: 5.98
- smiles-representation: "O=C1COc2ccccc2N1CCCN1CCC(c2noc3cc(F)ccc23)CC1"
  result-number: 8.57
- smiles-representation: "O=C1COc2ccccc2N1CCCN1CCN(c2nsc3ccccc23)CC1"
  result-number: 8.24

---

# tested-system: D(2) dopamine receptor (Homo sapiens, UniProt P14416)
# Sequence (P14416 whole entry): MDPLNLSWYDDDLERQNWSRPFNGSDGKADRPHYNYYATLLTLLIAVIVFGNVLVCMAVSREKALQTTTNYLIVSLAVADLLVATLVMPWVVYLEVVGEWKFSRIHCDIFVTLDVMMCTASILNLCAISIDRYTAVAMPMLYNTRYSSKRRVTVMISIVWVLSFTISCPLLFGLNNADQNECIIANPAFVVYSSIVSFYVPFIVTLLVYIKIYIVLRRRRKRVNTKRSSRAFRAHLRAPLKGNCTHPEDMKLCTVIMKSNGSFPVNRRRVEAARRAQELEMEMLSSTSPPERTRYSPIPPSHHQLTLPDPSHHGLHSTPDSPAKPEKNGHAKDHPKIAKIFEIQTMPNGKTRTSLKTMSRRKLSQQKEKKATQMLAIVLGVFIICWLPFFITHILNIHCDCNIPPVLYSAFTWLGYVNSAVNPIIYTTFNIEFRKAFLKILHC
# test-name: Antagonist activity at human dopamine D2L receptor expressed in F1pIn CHO cells assessed as inhibition of ERK1/2 phosphorylation incubated for 5 mins by AlphaScreen assay
# Format: cell-based
Below, each entry is listed with its recorded log10 Kb.
assay-endpoint: log10 Kb (log10 of the value in nM)

- smiles-representation: "COc1ccccc1N1CCN(CCCN2C(=O)COc3ccccc32)CC1"
  log10 Kb: 0.89
- smiles-representation: "O=C1COc2ccccc2N1CCCN1CCN(c2nsc3ccccc23)CC1"
  log10 Kb: 0.85
- smiles-representation: "O=C(Cc1ccccc1)NC1CCN(CCCN2C(=O)COc3ccccc32)CC1"
  log10 Kb: 3.32
- smiles-representation: "O=C1COc2ccccc2N1CCCN1CCC(c2noc3cc(F)ccc23)CC1"
  log10 Kb: 0.08
- smiles-representation: "O=C1COc2ccccc2N1CCCN1CCN(c2cccc(Cl)c2Cl)CC1"
  log10 Kb: 2.00
